The measured values listed here are drawn from patent US20250136619A1.

Tested on: HeLa cells
test: Cellular growth inhibition assay (CellTiter-Glo), HeLa cells
Type: cell-based
test conditions: HeLa cells, three days of compound treatment, CellTiter-Glo 2.0; read-out: CTG HELA GI50
reported property: GI50

# compound, tgt, reported property, result
records = [
    ("CCc1cnn2c(NCc3ccc(OCCCN4CCN(CCCN(C)C/C=C/C(=O)N5CCC[C@@H](n6nc(-c7ccc(Oc8ccccc8)cc7)c7c(N)ncnc76)C5)CC4)nc3)cc(N3CCCC[C@H]3CCO)nc12 [Compound I-69]", "HeLa cells", "GI50", "< 500 nM"),
    ("CCc1cnn2c(NCc3ccc(=O)n(CCOCCOCCOCCOCCCc4cc(-c5cnc([C@H](C)Nc6nccc(N7C(=O)OC[C@@H]7[C@H](C)F)n6)cc5C)cc(C(F)(F)F)n4)c3)cc(N3CCCC[C@H]3CCO)nc12 [Compound I-103]", "HeLa cells", "GI50", "500 to 1500 nM"),
    ("CCc1cnn2c(NCc3ccc(OCCOCCOCCNS(=O)(=O)c4cc(F)cc(N(C(=O)[C@@H]5CCC(=O)N5c5cc(C#N)ccn5)C(C(=O)NC5CC(F)(F)C5)c5ccccc5Cl)c4)nc3)cc(N3CCCC[C@H]3CCO)nc12 (stereo partly drawn) [Compound I-92]", "HeLa cells", "GI50", "< 500 nM"),
    ("CCc1cnn2c(NCc3ccc(OCCOCCOCCCCCn4c(C#N)ccc(N[C@@H](C)c5cc6cc(Cl)ccc6[nH]c5=O)c4=O)nc3)cc(N3CCCC[C@H]3CCO)nc12 [Compound I-91]", "HeLa cells", "GI50", "< 500 nM"),
    ("CCc1cnn2c(NCc3ccc(OCCCCCOc4nc(C#N)ccc4N[C@@H](C)c4cc5cc(Cl)ccc5[nH]c4=O)nc3)cc(N3CCCC[C@H]3CCO)nc12 [Compound I-90]", "HeLa cells", "GI50", "< 500 nM"),
]

Task item: Endpoint output: GI50 of CCc1cnn2c(NCc3ccc(OCCCCCn4c(C#N)ccc(N[C@@H](C)c5cc6cc(Cl)ccc6[nH]c5=O)c4=O)nc3)cc(N3CCCC[C@H]3CCO)nc12 [Compound I-89] . Value?
Reply: < 500 nM

Task item: Endpoint output: GI50 of CCc1cnn2c(NCc3ccc(OCCOCCOCCOCCOCCCc4cc(-c5cnc([C@H](C)Nc6nccc(N7C(=O)OC[C@@H]7[C@H](C)F)n6)cc5C)cc(C(F)(F)F)n4)nc3)cc(N3CCCC[C@H]3CCO)nc12 [Compound I-102] . Value?
Reply: < 500 nM

Task item: Endpoint output: GI50 of CCc1cnn2c(NCc3ccc(OCCOCCOCCOCCOCCNS(=O)(=O)c4cc(F)cc(N(C(=O)[C@@H]5CCC(=O)N5c5cc(C#N)ccn5)C(C(=O)NC5CC(F)(F)C5)c5ccccc5Cl)c4)nc3)cc(N3CCCC[C@H]3CCO)nc12 (stereo partly drawn) [Compound I-94] . Value?
Reply: 500 to 1500 nM

Task item: Endpoint output: GI50 of CCc1cnn2c(NCc3ccc(=O)n(CCOCCOCCOCCOCCNS(=O)(=O)c4cc(F)cc(N(C(=O)[C@@H]5CCC(=O)N5c5cc(C#N)ccn5)C(C(=O)NC5CC(F)(F)C5)c5ccccc5Cl)c4)c3)cc(N3CCCC[C@H]3CCO)nc12 (stereo partly drawn) [Compound I-95] . Value?
Reply: 500 to 1500 nM
